Assay: amyloid nucleation score (Sup35N fusion, yeast selection) (log enrichment); library NNK1; higher = more nucleation; inactive = no reads after selection;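 note: zero at mode of non-aggregating sequences after 7 days selection at 30°C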
experimentalEndpoint: amyloid nucleation score

{"substance": "PFVYGLCESFPFGCQYGWGC", "experimentalEndpoint": "amyloid nucleation score", "result": "inactive"}
{"substance": "FLYDYYG", "experimentalEndpoint": "amyloid nucleation score", "result": "inactive"}
{"substance": "FSGVMLPVLIISRF", "experimentalEndpoint": "amyloid nucleation score", "result": "inactive"}

* * *

Experiment: amyloid nucleation score (Sup35N fusion, yeast selection) (log enrichment); library NNK2; higher = more nucleation; inactive = no reads after selection
Listed here: items and their measured amyloid nucleation score.
Lab note: write the figure by itself, no unit.

Previously resolved entries follow.
{"sequenceContent": "LKQLKISRRADNYVTQCNLV", "amyloid nucleation score": 2.91}
{"sequenceContent": "MIRWSRRTCRKGLTECTCST", "amyloid nucleation score": 1.52}
{"sequenceContent": "RMWDSSCSLRGMRLGVYRAR", "amyloid nucleation score": 0.396}
{"sequenceContent": "LLRVDRCCWDN", "amyloid nucleation score": -0.011}
{"sequenceContent": "NLFYLARSMLINLQMYKTER", "amyloid nucleation score": 4.46}

Q) GET /values?readout=amyloid nucleation score&item= HTWGAHRFCRWRNTSASDSW
A) 8.7

* * *

Assay: amyloid nucleation score (Sup35N fusion, yeast selection) (log enrichment); library NNK2; higher = more nucleation; inactive = no reads after selection
experimentalEndpoint: amyloid nucleation score
Lab note: write the figure by itself, no unit.

Previously resolved entries follow.
{"substance": "LINLVWTDEITMSDYMKRSG", "quantitativeReadout": 0.858}
{"substance": "GVMYSLFRNSSWGGHIMSGK", "quantitativeReadout": 0.818}
{"substance": "GISSSHPRTNGHRQYLNFGV", "quantitativeReadout": -0.627}
{"substance": "DWRFRSGISISKYLVINLGD", "quantitativeReadout": 5.79}
{"substance": "CRYRLYYRCEVLEYLSDFTW", "quantitativeReadout": -0.492}

Please examine the following record next.
Q) GET /values?readout=amyloid nucleation score&item= YSLLCWVYIRSLNSLNKCCG
A) 3.15

* * *

Test: amyloid nucleation score (Sup35N fusion, yeast selection) (log enrichment); library NNK1; higher = more nucleation; inactive = no reads after selection
experimentalEndpoint: amyloid nucleation score

{"sequenceContent": "VYAYVSHLLIYVFSGRV", "amyloid nucleation score": "inactive"}
{"sequenceContent": "LRFVTINRRSVSVYSSNTKS", "amyloid nucleation score": "inactive"}
{"sequenceContent": "WTVSWHIVGYSRVDVMKRTK", "amyloid nucleation score": "inactive"}
{"sequenceContent": "GLVSRIAGLIHEIDGRFWMQ", "amyloid nucleation score": "inactive"}

Please examine the following record next.
Q) GET /values?readout=amyloid nucleation score&item= LMSEVRPAMLDSSVLRDCYD
A) inactive

* * *

Test: amyloid nucleation score (Sup35N fusion, yeast selection) (log enrichment); library NNK2; higher = more nucleation; inactive = no reads after selection
experimentalEndpoint: amyloid nucleation score

{"sequenceContent": "AFCKALCIVRRYSPPPLIVA", "result": "inactive"}
{"sequenceContent": "NFNHVSEI", "result": "inactive"}
{"sequenceContent": "RVRSGKKHDW", "result": 1.01}

* * *

Assay: amyloid nucleation score (Sup35N fusion, yeast selection) (log enrichment); library NNK1; higher = more nucleation; inactive = no reads after selection

{"substance": "LELTIRVRNSIVI", "amyloid nucleation score": "inactive"}
{"substance": "SCTASMASPNLEF", "amyloid nucleation score": "inactive"}
{"substance": "HRSSNVSGLVWSFHRMKYVI", "amyloid nucleation score": 0.599}
{"substance": "GNRSSS", "amyloid nucleation score": "inactive"}

* * *

Assay: amyloid nucleation score (Sup35N fusion, yeast selection) (log enrichment); library NNK1; higher = more nucleation; inactive = no reads after selection
Use 0.1 as the dividing line for amyloid nucleation score, with the line itself on the met side and lower values as not met.

{"substance": "SYWLWTVNTMSLVPFRASCR", "answerLabel": "met"}

Q) # check: amyloid nucleation score of QLSYLTFFCFVP is greater than or equal to 0.1
A) met

Q) # check: amyloid nucleation score of LNTWVGVGGWPE is greater than or equal to 0.1
A) not met

Q) # check: amyloid nucleation score of LYVVSSVFLGEPVRKQVYQI is greater than or equal to 0.1
A) not met

Q) # check: amyloid nucleation score of SCGLYFAGVEVGGAVSLCKG is greater than or equal to 0.1
A) not met

Q) # check: amyloid nucleation score of LNLTMVGIYINDFL is greater than or equal to 0.1
A) met

* * *

Test: amyloid nucleation score (Sup35N fusion, yeast selection) (log enrichment); library NNK2; higher = more nucleation; inactive = no reads after selection
Listed here: items and their measured amyloid nucleation score.
Lab note: write the figure by itself, no unit.

{"substance": "LFIRINWDFSNLWGTFGITV", "quantitativeReadout": 0.553}
{"substance": "NMIYYMFEYAWPCIVER", "quantitativeReadout": 7.37}
{"substance": "GRRVPGWNQSYL", "quantitativeReadout": -0.274}
{"substance": "TDVPSRIGPDMGKYLKAES", "quantitativeReadout": 0.655}
{"substance": "VYYSGALFQNVLYLLSFMVV", "quantitativeReadout": -0.501}

Please examine the following record next.
Q) GET /values?readout=amyloid nucleation score&item= LMGIILF
A) -1.49

* * *

Listed here: items and their measured amyloid nucleation score.
Assay: amyloid nucleation score (Sup35N fusion, yeast selection) (log enrichment); library NNK1; higher = more nucleation; inactive = no reads after selection
Lab note: write the figure by itself, no unit.

Previously resolved entries follow.
{"substance": "NIITVGNGSILMMVWSSEVN", "amyloid nucleation score": 5.63}
{"substance": "CLILTRCVSYGRPMTACLVL", "amyloid nucleation score": 0.16}
{"substance": "AYNLNLYNRCQVLMLISSTR", "amyloid nucleation score": 4.91}
{"substance": "NLQVVYMSLV", "amyloid nucleation score": 2.99}
{"substance": "IGFRPGRNSVWLMSRDLNFW", "amyloid nucleation score": -1.11}

Q) GET /values?readout=amyloid nucleation score&item= ANLKISSALDVVRHRRKYQY
A) 0.014

Q) GET /values?readout=amyloid nucleation score&item= FFVLRLSLTFWSCKS
A) 1.3

Q) GET /values?readout=amyloid nucleation score&item= YSVINWFMVAYYRADRLVNG
A) -0.144

Q) GET /values?readout=amyloid nucleation score&item= RSCMRPFIGIMSSSPQIDKA
A) -0.53

Q) GET /values?readout=amyloid nucleation score&item= QDLPAISLFTDVQSKPRTFP
A) 0.631

Q) GET /values?readout=amyloid nucleation score&item= VSFILGSNCWAYKTTPMGFL
A) 0.881

Q) GET /values?readout=amyloid nucleation score&item= LFTSVYL
A) -0.173

Q) GET /values?readout=amyloid nucleation score&item= QVLDTGVVTDWSVIPFGRSY
A) 0.483

* * *

Assay: amyloid nucleation score (Sup35N fusion, yeast selection) (log enrichment); library NNK3; higher = more nucleation; inactive = no reads after selection
experimentalEndpoint: amyloid nucleation score

{"substance": "AWTGGSLGLTNI", "experimentalEndpoint": "amyloid nucleation score", "result": "inactive"}
{"substance": "LSFAVKCFRIGDMNAFNTFI", "experimentalEndpoint": "amyloid nucleation score", "result": "inactive"}
{"substance": "ARWGDSLSRDLTSGYLFGVG", "experimentalEndpoint": "amyloid nucleation score", "result": "inactive"}
{"substance": "WSCESNDVHSCWWWLGGFNT", "experimentalEndpoint": "amyloid nucleation score", "result": "inactive"}

Q) GET /values?readout=amyloid nucleation score&item= YYCDLRSYIRSPG
A) inactive

Q) GET /values?readout=amyloid nucleation score&item= MCGDCICVVSVMLAHAPKCS
A) inactive

Q) GET /values?readout=amyloid nucleation score&item= NIFRMRNQVIRSVLNVHVMT
A) inactive

Q) GET /values?readout=amyloid nucleation score&item= VTCWGWSFAGGRHCQVEAGV
A) -0.456

Q) GET /values?readout=amyloid nucleation score&item= RTSFLGVID
A) inactive

* * *

Test: amyloid nucleation score (Sup35N fusion, yeast selection) (log enrichment); library NNK1; higher = more nucleation; inactive = no reads after selection
experimentalEndpoint: amyloid nucleation score

Previously resolved entries follow.
{"substance": "PTFNSAQTRSISYIKTDYLE", "amyloid nucleation score": "inactive"}
{"substance": "VFTSNGNDLPISRSELRLNL", "amyloid nucleation score": "inactive"}
{"substance": "GIPYSVDGYVLVDVSITTIA", "amyloid nucleation score": "inactive"}
{"substance": "LVHKLFDIRRCPTAFSNWTM", "amyloid nucleation score": 1.29}
{"substance": "AGNFVVPMDAE", "amyloid nucleation score": 1.62}

Q) GET /values?readout=amyloid nucleation score&item= AFCRCNNRKVEQLMNLCGVF
A) -0.771

// data source = the supplement of paper PMC12042874
